Data origin: paper PMC3532720

- measuredOn: HaGR9 (Helicoverpa armigera)
- Construct: native full-length receptor, 465 residues, untagged, cDNA from larval foregut, transiently expressed in Spodoptera frugiperda Sf9 cells, no co-receptor co-transfected
- Sequence (L0C9V2 1-465): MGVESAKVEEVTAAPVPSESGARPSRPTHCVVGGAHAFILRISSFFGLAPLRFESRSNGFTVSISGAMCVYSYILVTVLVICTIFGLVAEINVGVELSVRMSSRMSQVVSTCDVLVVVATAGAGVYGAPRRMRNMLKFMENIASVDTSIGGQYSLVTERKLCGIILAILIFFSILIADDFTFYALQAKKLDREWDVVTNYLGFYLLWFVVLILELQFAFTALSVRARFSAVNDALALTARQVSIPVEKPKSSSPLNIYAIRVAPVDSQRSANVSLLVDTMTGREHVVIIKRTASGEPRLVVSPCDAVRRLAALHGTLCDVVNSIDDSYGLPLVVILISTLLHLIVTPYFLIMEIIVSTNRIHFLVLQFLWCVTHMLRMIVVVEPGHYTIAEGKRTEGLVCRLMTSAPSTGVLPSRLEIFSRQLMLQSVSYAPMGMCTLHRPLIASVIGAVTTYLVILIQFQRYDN
- testSummary: calcium imaging, transfected Sf9 cells
- runConditions: agonist; dose range 5 to 50 mM; HBSS buffer; control-cell response subtracted; Sf9 cells have endogenous sugar responses

{"columns": ["molecule", "valueUnits", "EC50"],
 "data": [
  ["OCC1(O)OC[C@@H](O)[C@@H](O)[C@@H]1O (stereo partly drawn)", "mM", 21.5],
  ["OC[C@H]1OC(O)[C@H](O)[C@@H](O)[C@H]1O (stereo partly drawn)", "mM", 21.3],
  ["OC[C@H]1O[C@H](O[C@H]2[C@H](O)[C@@H](O)C(O)O[C@@H]2CO)[C@H](O)[C@@H](O)[C@@H]1O (stereo partly drawn)", "mM", 16.5]
]}
